Where do these numbers come from? They come from ChEMBL document CHEMBL1201862.

Each entry below carries its reported GI50.
# System: PC-3
# assay.procedure: NCI tumour cell line growth inhibition, 48 h
The source made the active and inactive calls. Cut-off read from the data, not from the text of the source: active = GI50 up to about 1.1 µM and inactive = higher.
metric: GI50

molecule | experimental.value
COc1cc(/C=C\C(=O)O)ccc1OCc1ccccc1 | > 100 µM (inactive)
O=C1/C(=C/c2ccc(Cl)cc2)N=C(c2ccccc2)N1c1nc2ccc(Sc3ccccc3)cc2[nH]1 | 30.6 µM (inactive)
CCCCNC(=O)OCCN=C1c2ccccc2C(Br)C(Br)c2ccccc21 (stereo unspecified) | 36.9 µM (inactive)
CSCC[C@H]1C(=O)N=C(N)N1C(=O)OCc1ccccc1 | 50.4 µM (inactive)
O=c1sc(Nc2ccc3ccccc3c2Cl)nc2ccccc12 | > 100 µM (inactive)
CC1(c2ccc(Cl)cc2)C=C(c2ccc(Cl)cc2)C(C#N)=C(C(C#N)C#N)N1.CNC (stereo unspecified) | 16.6 µM (inactive)
CCOC(=O)C(=[N+]=[N-])C(=O)C[N+]12CCN(CC1)CC2 | > 100 µM (inactive)
Cc1ncc2c(n1)CCC1=C2OS(=O)(=O)CC1N(C)C (stereo unspecified) | > 100 µM (inactive)
O=C(OCC(Cl)(Cl)Cl)O[C@@H]1CCCC1(c1ccccc1)c1ccccc1 | 37.5 µM (inactive)
COc1ccc(Nc2nc3ccccc3nc2C(=O)O)cc1 | > 100 µM (inactive)
NNC(=S)NCCNC(=S)NN | > 100 µM (inactive)
